The reported numbers originate from ChEMBL document CHEMBL1201862.

System: HL-60
Assay: NCI tumour cell line growth inhibition, 48 h
Calls of active or inactive are those of the source. No stated cut-off is given here; in the data, active = GI50 up to about 1.1 µM and inactive = higher.
measureName: GI50

Recorded results for 2 compounds are shown here.
compound	experimentalTarget	GI50
Cc1cccc(C)c1N1C(=O)C2c3[nH]c4ccccc4c3C3CCC(C(C)(C)C)CC3C2C1=O (stereo not drawn)	HL-60	12.8 µM (inactive)
C=CCP(=O)(CC=C)C(Cl)Cl	HL-60	> 100 µM (inactive)

Okay, next one:
Quick one: give measured GI50 for Cc1ccccc1N(CCC#N)C1=NN(C(=O)CC(=O)Nc2ccc(Cl)cc2)C(c2ccccc2)C1 (stereo not drawn) > 100 µM (inactive)

====

Tested on: K562
Test: NCI tumour cell line growth inhibition, 48 h
The source made the active and inactive calls. No stated cut-off is given here; in the data, active = GI50 up to about 1.1 µM and inactive = higher.
Provide the reported GI50 of each item.

Recorded results for 4 compounds are shown here.
compound	assayValue
CC(O)(/C=C/c1ccccc1)P(=O)(O)c1ccccc1 (stereo not given)	> 100 µM (inactive)
COc1ccccc1/N=C1\SCCN1C(=S)Nc1ccc(S(=O)(=O)/N=C/N(C)C)cc1	39.6 µM (inactive)
COC(=O)C1SC[C@H]2C(=O)N(c3ccccc3)C(=O)N12 (stereo not given in full)	> 100 µM (inactive)
COP(=O)(OC)/C(=C/c1cn(C(C)=O)c2ccccc12)NC(C)=O	6.75 µM (inactive)

Quick one: give measured GI50 for C=CCOc1ccc(C2C(C(=O)OC)C(=O)CC(O)(c3ccccc3)C2C(=O)OC)cc1OC (stereo not given) 51.2 µM (inactive)

====

Test system: A498
Experiment: NCI tumour cell line growth inhibition, 48 h
Activity calls are given as the source filed them. Cut-off read from the data, not from the text of the source: active = GI50 up to about 1.1 µM and inactive = higher.
measureName: GI50

Recorded results for 6 molecules are shown here.
molecule	GI50
FC(F)(F)c1ccc2c(c1)nc(-c1ccc(Cl)cc1)n2CC1CCCN2CCCCC12 (centres undefined)	14.2 µM (inactive)
CC(C)=CCc1c(O)cc2oc(-c3ccc(O)cc3O)cc(=O)c2c1O	44.2 µM (inactive)
Nc1nc(O)c2ncn(C3C=CC(CO)C3)c2n1 (centres undefined)	> 100 µM (inactive)
CC(=O)OCC(OC(C)=O)C(OC(C)=O)C(OC(C)=O)C(=O)CNn1c(-c2ccccc2Cl)nc2ccc(Br)cc2c1=O (centres undefined)	55.7 µM (inactive)
CNn1c(-c2ccccc2)n[nH]c1=O	> 100 µM (inactive)
CC(C)C1COC(c2ccc3ccccc3c2-c2c(O[Si](C)(C)C(C)(C)C)ccc3ccccc23)=N1 (centres undefined)	19.2 µM (inactive)

Each molecule below has a reported value. Please supply its GI50.
1. COc1cc(-c2[o+]c3cc(O)cc(OC4OC(CO)C(O)C(O)C4O)c3cc2OC2OC(CO)C(O)C(O)C2O)cc(OC)c1O (centres undefined)
2. CC(C)(Cc1ccccc1)NC1=NCCO1
3. O=C1NC(=O)C2C1N(Cc1ccccc1)C(=O)N2Cc1ccccc1 (centres undefined)

> 100 µM (inactive)
> 100 µM (inactive)
> 100 µM (inactive)

====

Test system: SNB-75
Test: NCI tumour cell line growth inhibition, 48 h
Active and inactive are the calls of the source. Cut-off read from the data, not from the text of the source: active = GI50 up to about 1.1 µM and inactive = higher.
measureName: GI50

compound	experimentalTarget	GI50
O=C1CC(C(O)C(O)C(O)CO)CC(=O)N1 (stereo not drawn)	SNB-75	> 100 µM (inactive)
O=c1cccccc1NCCCCNc1cccccc1=O	SNB-75	> 100 µM (inactive)

Each compound below has a reported value. Please supply its GI50.
1. COc1ccc2c(c1)C(=O)[C@@](Nc1ccc(C=O)cc1)(OC)[C@@](OC)(c1ccc([N+](=O)[O-])cc1)O2
2. Cc1nc2c(N)ncnc2o1
3. Cc1nn(C(=O)c2ccccc2O)c2c1C(c1ccc(O)cc1O)SC(=N)N2 (stereo not drawn)
4. O=C1c2ccccc2-c2nc3ccncc3n21
5. N=C(N)NS(=O)(=O)c1ccc(NCc2c3ccccc3[n+]([O-])c3ccccc23)cc1
6. Cc1cn(C2CC(N=[N+]=[N-])C(COP(=O)(O)OCC3OC(n4cc(F)c(=O)[nH]c4=O)CC3O)O2)c(=O)[nH]c1=O (stereo not drawn)

["3.91 µM (inactive)", "> 100 µM (inactive)", "2.48 µM (inactive)", "> 100 µM (inactive)", "13.5 µM (inactive)", "9.06 µM (inactive)"]

====

System: UACC-257
Assay: NCI tumour cell line growth inhibition, 48 h
Activity calls are given as the source filed them. Rule as the data show it: active = GI50 up to about 1.1 µM and inactive = higher.
measureName: GI50

Recorded results for 3 compounds are shown here.
CCCNc1[nH]c(C(=O)c2ccccc2)c(N)c1C(=S)Nc1ccccc1 > 100 µM (inactive)
COC(=O)C1=C2SCc3ccc(cc3)CSC3=C(C(=O)OC)SC(=C(S2)S1)S3 > 100 µM (inactive)
N#CC(C#N)=c1c2nsnc2c(=C(C#N)C#N)c2nsnc12 1.94 µM (inactive)

Okay, next one:
Look up UACC-257 data: GI50 of `CCc1cc2c(c3[nH]ccc13)[C@@H](C)C[C@H]2C` , then report it. 19.9 µM (inactive)

====

Provide the reported GI50 of each item.
System: HT-29
Test: NCI tumour cell line growth inhibition, 48 h
Activity calls are given as the source filed them. Cut-off read from the data, not from the text of the source: active = GI50 up to about 1.1 µM and inactive = higher.

compound	GI50
COc1cc2c(cc1OC)-c1cc3ccccc3c(=O)n1CC2	24.8 µM (inactive)

Each compound below has a reported value. Please supply its GI50.
1. CN[C@H](C)[C@@H](OC)c1ccccc1
2. Cc1ccc(S(=O)(=O)N2CC(CCN)c3ccccc32)cc1 (configuration not stated)
3. c1c[nH]c(C23C4C5C6C4C2C6C53)n1 (configuration not stated)
4. Cc1ncc(C/N=C/c2ccc(Cl)cc2)c(N)n1
5. Cc1ccccc1OC(C)C(=O)NN1C(=O)CSC1c1ccccc1 (configuration not stated)
6. COC(=O)NC(=O)c1cn(CCCOC(=O)CCCCCCCCC(=O)OCCCn2cc(C(=O)NC(=O)OC)c(=O)[nH]c2=O)c(=O)[nH]c1=O

1. > 100 µM (inactive)
2. 2.89 µM (inactive)
3. > 100 µM (inactive)
4. > 100 µM (inactive)
5. 93.1 µM (inactive)
6. > 100 µM (inactive)

====

Test system: HCT-15
Test: NCI tumour cell line growth inhibition, 48 h
Provide the reported GI50 of each item.

Recorded results for 2 compounds are shown here.
CNC(=O)N1CCN(C(=O)NC)CCN(C(=O)NC)CC1 > 100 µM
Cc1cc2c(=O)c3ccc(Cl)cc3[nH]c2c(C(=O)O)c1C > 100 µM

Okay, next one:
Quick one: give measured GI50 for `CC(C)(Cc1ccccc1)NC1=NCCO1` > 100 µM

====

Test system: SK-MEL-28
Assay: NCI tumour cell line growth inhibition, 48 h
The source made the active and inactive calls. No stated cut-off is given here; in the data, active = GI50 up to about 1.1 µM and inactive = higher.
measureName: GI50

Recorded results for 2 compounds are shown here.
compound	GI50
O=C(Sc1c(-c2ccccc2)c(=O)n(-c2ccccc2)c(=S)n1-c1ccccc1)c1ccc(Cl)cc1	> 100 µM (inactive)
COC(OC)C1OC(CO)C(n2cc(F)c(=O)[nH]c2=O)C1O (stereo not drawn)	> 100 µM (inactive)

Okay, next one:
Quick one: give measured GI50 for `NC1=C(N2CCOCC2)C(=O)NC2=N/C(=C\c3ccccc3)C(=O)N21` > 100 µM (inactive)

====

Provide the reported GI50 of each item.
Test system: NCI-H522
Experiment: NCI tumour cell line growth inhibition, 48 h
Active and inactive are the calls of the source. No stated cut-off is given here; in the data, active = GI50 up to about 1.1 µM and inactive = higher.

Recorded results for 2 compounds are shown here.
compound	GI50
Cc1c2cnccc2c(C)c2c1c1ccccc1n2CCCCCCNCc1ccccc1	2.15 µM (inactive)
O=c1oc2ccccc2n1P(=O)(n1c(=O)oc2ccccc21)n1c(=O)oc2ccccc21	> 100 µM (inactive)

Each compound below has a reported value. Please supply its GI50.
1. CN(C)c1ccc(/C=N/c2ccc(-c3nc4ccccc4s3)cc2)cc1
2. O=c1cc(N=P(c2ccccc2)(c2ccccc2)c2ccccc2)n(-c2ccccc2)c(=O)n1-c1ccccc1
3. COc1cc2c(cc1OC)-c1c(oc3cc(OC4OC(CO)C(O)C(O)C4O)c(OC)cc3c1=O)C(O)O2 (configuration not stated)
4. C=CCN1CCC23c4c5ccc(O)c4OC2C(=NN=C2CCC4(O)C6Cc7ccc(O)c8c7C4(CCN6CC=C)C2O8)CCC3(O)C1C5 (configuration not stated)
5. Cc1ccc(/C(O)=C/c2nc3ccccc3oc2=O)cc1
6. CN(CCNC(=S)c1cn(C)c2c1ccc1ccccc12)CCNC(=S)c1cn(C)c2c1ccc1ccccc12
7. O=C(O)CCC(=O)c1ccc[nH]1
8. C[C@@H](NC(=O)OC1C=CC2(CC1)C(=O)N(C)c1ccccc12)c1cccc2ccccc12 (some centres not stated)

1. 18.1 µM (inactive)
2. 14.4 µM (inactive)
3. > 100 µM (inactive)
4. 31 µM (inactive)
5. 16.7 µM (inactive)
6. 51.2 µM (inactive)
7. > 100 µM (inactive)
8. 5.24 µM (inactive)

Each compound below has a reported value. Please supply its GI50.
1. C=C(C)C1CC(=O)C(C)=C(O)C1 (configuration not stated)
2. CCOC(=O)c1c(N2CCCC2)[nH]c(=O)c(C(c2ccco2)c2c(O)c(C(=O)OCC)c(N3CCCC3)[nH]c2=O)c1O

1. > 100 µM (inactive)
2. 84.9 µM (inactive)
